System: HepG2
Experiment: cell viability relative to DMSO; higher = less toxic
Details: 72 h; 10 nM
value-type: cell viability (%)
Write down the numeric answer in % and omit the unit.

Some solved cases for reference:
CCN[C@H]1C[C@H](C)S(=O)(=O)c2sc(S(N)(=O)=O)cc21 [dorzolamide] = 93.7
CO[C@@]1(NC(=O)C(C(=O)O)c2ccc(O)cc2)C(=O)N2C(C(=O)O)=C(CSc3nnnn3C)CO[C@@H]21 (stereo partly specified) [moxalactam] = 95.2
Nc1ccc(S(=O)(=O)Nc2ccnn2-c2ccccc2)cc1 [sulfaphenazole] = 99.5
CC[C@@H]1/C=C(\C)C[C@H](C)C[C@H](OC)[C@H]2O[C@@](O)(C(=O)C(=O)N3CCCC[C@H]3C(=O)O[C@H](/C(C)=C/[C@@H]3CC[C@@H](O)[C@H](OC)C3)[C@H](C)[C@@H](O)CC1=O)[C@H](C)C[C@@H]2OC [ascomycin] = 109
CCN(CC)CCOC(=O)c1ccc(N)cc1 [procaine] = 94.9

// query Supply reported cell viability belonging to this compound: CCCC(CCC)C(=O)NCc1ccc2c(cnn2-c2ccccc2OC)c1 [M-25]
// result 108

// query Supply reported cell viability belonging to this compound: CN[C@@H](C)C(=O)N[C@H](C(=O)N1CCC[C@H]1c1nc(C(=O)c2ccc(F)cc2)cs1)C1CCCCC1 [LCL-161]
// result 104

// query Supply reported cell viability belonging to this compound: COC(=O)[C@H](c1ccccc1Cl)N1CCc2sccc2C1 [clopidogrel]
// result 97.7

// query Supply reported cell viability belonging to this compound: CC(=O)N1CCC(C(=O)N(CCCN2CCC(Cc3ccc(C(N)=O)cc3)CC2)c2ccc(C)c(Cl)c2)CC1 [TAK-220]
// result 87.2

// query Supply reported cell viability belonging to this compound: O=C(O)c1ccccc1C(=O)Nc1ccc(-c2ccccc2)cc1 [kartogenin]
// result 98.4

// query Supply reported cell viability belonging to this compound: O=C(Nc1ccccc1F)N[C@H]1N=C(c2ccccc2)c2ccccc2NC1=O [RSV604]
// result 110

// query Supply reported cell viability belonging to this compound: CC(C)[N+](C)(CCC(C(N)=O)(c1ccccc1)c1ccccc1)C(C)C [isopropamide-iodide]
// result 108

// query Supply reported cell viability belonging to this compound: O=c1ncccn1[C@@H]1O[C@H](CO)[C@@H](O)[C@H]1O [zebularine]
// result 97.5

###

Tested on: Vero E6
Experiment: drug sensitivity score (DSS) for viability; higher = more toxic; extreme values may be limits of the assay
Details: 72 h
Examples of molecules with documented drug sensitivity score follow.
Provide a numeric answer; units are not to be included.

Some solved cases for reference:
COc1cccc2c1C(=O)c1c(O)c3c(c(O)c1C2=O)C[C@@](O)(/C(CO)=N/NC(=O)CCCCCN1C(=O)C=CC1=O)C[C@@H]3O[C@H]1C[C@H](N)[C@H](O)[C@H](C)O1 = 5.8
O=c1ncccn1[C@@H]1O[C@H](CO)[C@@H](O)[C@H]1O = 0
C[C@]12CC[C@@H]3c4ccc(O)cc4CC[C@H]3[C@@H]1CCC2=O = 0

// query State recorded drug sensitivity score with Vero E6, entry CCS(=O)(=O)N(C)[C@@H]1c2cc(C#N)ccc2OC(C)(C)[C@H]1O.CCS(=O)(=O)N(C)[C@H]1c2cc(C#N)ccc2OC(C)(C)[C@@H]1O (racemic) [chromanol-(+/-)] , no comment.
// result 0

// query State recorded drug sensitivity score with Vero E6, entry CN1C(C)(C)CCCC1(C)C , no comment.
// result 0

// query State recorded drug sensitivity score with Vero E6, entry C[C@@H](O)[C@H](N)C(=O)N1CCC[C@H]1C(=O)N1CCC[C@H]1C(=O)N[C@H](C(N)=O)[C@@H](C)O , no comment.
// result 0

// query State recorded drug sensitivity score with Vero E6, entry CC[C@H](CO)Nc1nc(Nc2cccc(-c3ccccn3)c2)c2ncn(C(C)C)c2n1 [DRF053-(R)] , no comment.
// result 1

// query State recorded drug sensitivity score with Vero E6, entry COc1ccc(Br)cc1S(=O)(=O)NC(=O)/C=C/c1ccccc1Cc1ccc2ccccc2c1 , no comment.
// result 0

// query State recorded drug sensitivity score with Vero E6, entry COc1ccc2nc3c(c(N)c2c1)CCCC3 , no comment.
// result 0

// query State recorded drug sensitivity score with Vero E6, entry Cc1ccc(C(C)C)c(O)c1 , no comment.
// result 0

###

System: A549-ACE2
Assay: phospholipidosis EC50; higher = less potent phospholipidosis inducer
Conditions: 48 h
Examples of compounds with documented phospholipidosis EC50 follow.
Write down the numeric answer in µM and omit the unit.

Some solved cases for reference:
NC1(c2ccc(-c3nc4ccn5c(=O)[nH]nc5c4cc3-c3ccccc3)cc2)CCC1 [MK-2206] = 3.44
NC1(Cc2ccc(Cl)cc2)CCN(c2ncnc3[nH]ccc23)CC1 = 7.16
CC(C)(C)c1ccc(C(=O)CCCN2CCC(OC(c3ccccc3)c3ccccc3)CC2)cc1 [ebastine] = 22.1
COc1ccc(NC(=O)c2ccc(-c3ccc(-c4noc(C)n4)cc3C)cc2)cc1OCCN(C)C = 2.13

// query Supply reported phospholipidosis EC50 belonging to this compound: CCCCc1oc2ccc(NS(C)(=O)=O)cc2c1C(=O)c1ccc(OCCCN(CCCC)CCCC)cc1 [dronedarone]
// result 2.18

###

Test system: Caco-2
Test: drug sensitivity score (DSS) for viability; higher = more toxic; extreme values may be limits of the assay
Settings: 72 h
value-type: drug sensitivity score
Provide a numeric answer; units are not to be included.

Some solved cases for reference:
CO[C@H]1CC=C2CCN3CCC4=C(CC(=O)OC4)[C@]23C1 [NSC-9965] = 0
COc1cc2c(cc1-c1c(C)noc1C)ncc1[nH]c(=O)n([C@H](C)c3ccccn3)c12 [I-BET151] = 4.9
CCCCCCCCCCCCCCCC[N+](C)(C)Cc1ccccc1 [benzyldimethylhexadecylammonium] = 6.3
Cc1cc(N)c2ccccc2[n+]1CCCCCCCCCC[n+]1c(C)cc(N)c2ccccc21 [dequalinium] = 4.8
C[C@]1(O)C[C@@H](c2nc(-c3ccc4ccc(-c5ccccc5)nc4c3)c3c(N)nccn32)C1 [linsitinib] = 6.3
Cc1cc(F)c(Nc2ncnc3cc(OCc4ccccc4)ccc23)cc1O = 4
N#C[C@@H]1C[C@@H]2C[C@@H]2N1C(=O)[C@@H](N)C12CC3CC(CC(O)(C3)C1)C2 = 0
O=C(Nc1cnc(Cl)nc1)c1ccc(F)c(F)c1 = 0
N[C@@H](CC(=O)N1CCn2c(nnc2C(F)(F)F)C1)Cc1cc(F)c(F)cc1F [sitagliptin] = 0.2
CCS(=O)(=O)N(C)[C@@H]1c2cc(C#N)ccc2OC(C)(C)[C@H]1O.CCS(=O)(=O)N(C)[C@H]1c2cc(C#N)ccc2OC(C)(C)[C@@H]1O (racemic) [chromanol-(+/-)] = 0

// query Supply reported drug sensitivity score belonging to this compound: CN(C)CCCN1c2ccccc2Sc2ccc(Cl)cc21 [chlorpromazine]
// result 0

// query Supply reported drug sensitivity score belonging to this compound: O=C1NC(=O)[C@@H](c2cn3c4c(cccc24)CCC3)[C@@H]1c1c[nH]c2ccccc12 [tivantinib]
// result 7.7

// query Supply reported drug sensitivity score belonging to this compound: CC1CCN(CC[C@H]2CCCN2S(=O)(=O)c2cccc(O)c2)CC1
// result 0

// query Supply reported drug sensitivity score belonging to this compound: CCCC(=O)Nc1ccc(OCC(O)CNC(C)C)c(C(C)=O)c1 (configuration not stated) [acebutolol]
// result 0

// query Supply reported drug sensitivity score belonging to this compound: Cc1ccc(-n2nc(C(C)(C)C)cc2NC(=O)Nc2ccc(OCCN3CCOCC3)c3ccccc23)cc1 [doramapimod]
// result 0.3

// query Supply reported drug sensitivity score belonging to this compound: CC(=O)Nc1c(I)c(C(=O)O)c(I)c(N(C)C(C)=O)c1I [metrizoic-acid]
// result 0

// query Supply reported drug sensitivity score belonging to this compound: O=C(/C=C/c1ccc(O)c(O)c1)OCCc1ccccc1 [caffeic-acid-phenethyl-ester]
// result 3.2

###

Tested on: HepG2
Assay: drug sensitivity score (DSS) for viability; higher = more toxic; extreme values may be limits of the assay
Settings: 72 h
Examples of compounds with documented drug sensitivity score follow.
Provide a numeric answer; units are not to be included.

CO[C@H]1CC=C2CCN3CCC4=C(CC(=O)OC4)[C@]23C1 = 0
C[C@H](Nc1cc(NS(=O)(=O)N2CCC2)nc(SCc2cccc(F)c2F)n1)[C@@H](O)CO = 0
O=C(Nc1ccc(S(=O)(=O)Nc2ccccc2Cl)c(Cl)c1)c1ccccn1 = 0
COc1ccc(Br)cc1S(=O)(=O)NC(=O)/C=C/c1ccccc1Cc1ccc2ccccc2c1 = 0
O=C1CC[C@@](c2ccccc2)(C2CCN(Cc3ccc(I)cc3)CC2)C(=O)N1 [iododexetimide] = 1.4

Now look at this one.
// query Supply reported drug sensitivity score belonging to this compound: CCN(C)C(=O)Oc1cccc([C@H](C)N(C)C)c1
// result 0
